# Test protocol: Selectivity index, ratio of CC50 for human TZM-bl cells to EC50 for HIV1 3B infected in human MT2 cells
# Format: toxicity, cell-based
Property: Ratio CC50/EC50

Return value of Ratio CC50/EC50 for input Cc1cc(CCC#N)cc(C)c1Oc1cc(Nc2ccc(C#N)cc2)c(N)cc1C(=O)NC1CC1 , no commentary. 12630

Return value of Ratio CC50/EC50 for input CNC(=O)c1cc(N)c(Nc2ccc(C#N)cc2)cc1Oc1c(OC)cc(CCC#N)cc1OC , no commentary. 311

Return value of Ratio CC50/EC50 for input Cc1cc(CCC#N)cc(C)c1Oc1cc(Nc2ccc(C#N)cc2)c(N)cc1C(=O)N(C)C , no commentary. 24025

Return value of Ratio CC50/EC50 for input CNC(=O)OCc1cc(N)c(Nc2ccc(C#N)cc2)cc1Oc1c(C)cc(CCC#N)cc1C , no commentary. 5625

Return value of Ratio CC50/EC50 for input Cc1cc(CCC#N)cc(C)c1Oc1cc(Nc2ccc(C#N)cc2)c(N)cc1CNC1CC1 , no commentary. 4080

Return value of Ratio CC50/EC50 for input CCNC(=O)c1cc(N)c(Nc2ccc(C#N)cc2)cc1Oc1c(C)cc(CCC#N)cc1C , no commentary. 6140

Return value of Ratio CC50/EC50 for input Cc1cc(CCC#N)cc(C)c1Oc1cc(Nc2ccc(C#N)cc2)c(N)cc1C(=O)NC(C)C , no commentary. 3857

Return value of Ratio CC50/EC50 for input Cc1cc(CCC#N)cc(C)c1Oc1cc(Nc2ccc(C#N)cc2)c(N)cc1COC(=O)C1CC1 , no commentary. 1818

Return value of Ratio CC50/EC50 for input COC(=O)c1cc(N)c(Nc2ccc(C#N)cc2)cc1Oc1c(Br)cc(CCC#N)cc1OC , no commentary. > 82787

Return value of Ratio CC50/EC50 for input CNC(=O)c1cc(N)c(Nc2ccc(C#N)cc2)cc1Oc1c(Br)cc(CCC#N)cc1OC , no commentary. 24952
